- assay.system: Human DR5 (Homo sapiens, UniProt O14763)
- test: Binding affinity of antibody to human DR5 (BIAcore, CM5 chip)
- condition.summary: association rate, Human DR5, 1:1 Langmuir binding model
readout.kind: Ka(1/Ms)

DA18: humanized or deimmunized variant of parental clone D0; CDRs SEQ ID NO 1, 2, 7 / 4, 10, 15 (antibody, V domains shown) VH: EVQLVESGGGLVQPGGSLRLSCAASGFTFSSFNMLWVRQAPGKGLEWVAGIGKSDRYTGYGSAVKGRFTISRDDSKSTVYLQMNSLRAEDTAVYYCVRDAGSGCGSGGWTGACIDTWGQGTLVTVSS VL: DIQMTQSPSSLSASVGDRVTITCSGGDSYAGSYYYGWYQQKPGKAPKTLIYNNNNRPSGVPSRFSGSRSGTDFTLTISSLQPEDFATYYCGSRDSDGGGRFGQGTKVEIK
1.33 × 10^06 1/Ms

Let us examine a further case.
Given the molecule DA14: humanized or deimmunized variant of parental clone D0; CDRs SEQ ID NO 1, 2, 7 / 4, 12, 13 (antibody, V domains shown) VH: EVQLVESGGGLVQPGGSLRLSCAASGFTFSSFNMLWVRQAPGKGLEWVAGIGKSDRYTGYGSAVKGRFTISRDTSKNTAYLQMNSLRAEDTAVYYCSRDAGSGCGSGGWTGACIDTWGQGTLVTVSS VL: DIQMTQSPSSLSASVGDRVTITCSGGDSYAGSYYYGWYQQKPGKAPKTLIYNNNNKAKGVPSRFSGSRSGTDFTLTISSLQPEDFATYYCGSRDSSYVGIFGQGTKVEIK , write its reported Ka(1/Ms). 4.27 × 10^06 1/Ms
